assay-comment: Intrinsic clearance in mouse liver microsomes measured upto 60 mins by LC-MS/MS analysis
Format: ADME, Microsome
condition-set: read-out: CLH
Tick rule met if microsomal CLint is 20 µL/min/mg or greater. Tick rule not met if microsomal CLint is less than 20 µL/min/mg.

chem-smiles: Cc1c(-c2c(-c3ccc(F)o3)sc3ncnc(O[C@H](Cc4ccccc4OCc4ccnn4CC(F)(F)F)C(=O)O)c23)ccc(OCCN2CCN(C)CC2)c1Cl
assigned-class: rule not met
--
chem-smiles: C[C@@H]1[C@@H](C)C/C=C(\F)[C@@](O)(CN2CCN3CCCC[C@@H]3C2)[C@@H]2OCC[C@H]2CN2C[C@@]3(CCCc4cc(Cl)ccc43)COc3ccc(cc32)C(=O)NS1(=O)=O
assigned-class: rule not met
--
chem-smiles: COc1nn(C)cc1C(=O)N[S@@]1(=O)=NC(=O)c2ccc3c(c2)N(C[C@@H]2CCO[C@H]2[C@@](CN2CCN4CCOC[C@@H]4C2)(OC)/C(F)=C/C[C@H](C)C1)C[C@@]1(CCCc2cc(Cl)ccc21)CO3
assigned-class: rule not met
--
chem-smiles: C[C@@H]1[C@@H](C)C/C=C(\F)[C@@](O)(CC#N)[C@@H]2OCC[C@H]2CN2C[C@@]3(CCCc4cc(Cl)ccc43)COc3ccc(cc32)C(=O)NS1(=O)=O
assigned-class: rule not met
--
chem-smiles: COc1nn(C)cc1C(=O)N[S@@]1(=O)=NC(=O)c2ccc3c(c2)N(C[C@@H]2CCO[C@H]2[C@H](OC)/C(F)=C/C[C@H](C)C1)C[C@@]1(CCCc2cc(Cl)ccc21)CO3
assigned-class: rule not met
--
chem-smiles: CO[C@H]1/C=C/C[C@H](C)[C@@H](C)S(=O)(=O)NC(=O)c2ccc3c(c2)N(C[C@@H]2CCO[C@H]21)C[C@@]1(CCCc2cc(Cl)ccc21)CO3
assigned-class: rule met
--
chem-smiles: C[C@@H]1[C@@H](C)C/C=C(\F)[C@H](OCCN2CCOCC2)[C@@H]2OCC[C@H]2CN2C[C@@]3(CCCc4cc(Cl)ccc43)COc3ccc(cc32)C(=O)NS1(=O)=O
assigned-class: rule met
--
chem-smiles: COc1nn(C)cc1C(=O)N[S@]1(=O)=NC(=O)c2ccc3c(c2)N(C[C@@H]2CCO[C@H]2[C@](CN2CCN4CCOC[C@@H]4C2)(OC)/C(F)=C/C[C@H](C)C1)C[C@@]1(CCCc2cc(Cl)ccc21)CO3
assigned-class: rule not met
--
chem-smiles: CO[C@@]1(CN2CCN3CCOC[C@@H]3C2)/C(F)=C/C[C@H](C)[C@H](C)S(=O)(=O)NC(=O)c2ccc3c(c2)N(C[C@@H]2CCO[C@H]21)C[C@@]1(CCCc2cc(Cl)ccc21)CO3
assigned-class: rule met
--
chem-smiles: COc1nn(C)cc1C(=O)N[S@]1(=O)=NC(=O)c2ccc3c(c2)N(C[C@@H]2CCO[C@H]2[C@@H](OC)/C(F)=C/C[C@H](C)C1)C[C@@]1(CCCc2cc(Cl)ccc21)CO3
assigned-class: rule not met
--
chem-smiles: C/C1=C\C[C@H](C)[C@@H](C)S(=O)(=O)NC(=O)c2ccc3c(c2)N(C[C@@H]2CCO[C@H]2[C@H]1CO)C[C@@]1(CCCc2cc(Cl)ccc21)CO3
assigned-class: rule met
--
chem-smiles: COCCOCCn1nc(C)c2c1CSCc1cc(n(C)n1)CSc1cc(c3ccccc3c1)OCCCn1c(C(=O)O)c(C)c3c-2c(Cl)ccc31
assigned-class: rule met
--
chem-smiles: Cc1c2c(nn1C)CSCc1cc(n(C)n1)CSc1cc(c3ccccc3c1)OCCCc1c(C(=O)O)n(C)c3c-2c(Cl)ccc13
assigned-class: rule met
--
chem-smiles: COC[C@H]1/C(C)=C/C[C@H](C)[C@@H](C)S(=O)(=O)NC(=O)c2ccc3c(c2)N(C[C@@H]2CCO[C@H]21)C[C@@]1(CCCc2cc(Cl)ccc21)CO3
assigned-class: rule not met
--
chem-smiles: COc1nn(C)cc1C(=O)N[S@@]1(=O)=NC(=O)c2ccc3c(c2)N(C[C@@H]2CCO[C@H]2[C@](CN2CCN4CCOC[C@@H]4C2)(OC)/C(F)=C/C[C@H](C)C1)C[C@@]1(CCCc2cc(Cl)ccc21)CO3
assigned-class: rule not met
--
chem-smiles: C[C@@H]1[C@@H](C)C/C=C/[C@H](OCCN2CCOCC2)[C@@H]2OCC[C@H]2CN2C[C@@]3(CCCc4cc(Cl)ccc43)COc3ccc(cc32)C(=O)NS1(=O)=O
assigned-class: rule not met
--
chem-smiles: CO[C@H]1/C(F)=C/C[C@H](C)[C@@H](C)S(=O)(=O)NC(=O)c2ccc3c(c2)N(C[C@@H]2CCO[C@H]21)C[C@@]1(CCCc2cc(Cl)ccc21)CO3
assigned-class: rule met
--
chem-smiles: COc1nn(C)cc1C(=O)N[S@]1(=O)=NC(=O)c2ccc3c(c2)N(C[C@@H]2CCO[C@H]2[C@H](OC)/C(F)=C/C[C@H](C)C1)C[C@@]1(CCCc2cc(Cl)ccc21)CO3
assigned-class: rule not met
--
chem-smiles: CO[C@]1(CN2CCN3CCCC[C@@H]3C2)/C=C/C[C@H](C)[C@@H](C)S(=O)(=O)NC(=O)c2ccc3c(c2)N(C[C@@H]2CC[C@H]21)C[C@@]1(CCCc2cc(Cl)ccc21)CO3
assigned-class: rule not met
--
chem-smiles: COc1nn(C)cc1C(=O)N[S@@]1(=O)=NC(=O)c2ccc3c(c2)N(C[C@@H]2CCO[C@H]2[C@@H](OC)/C(F)=C/C[C@H](C)C1)C[C@@]1(CCCc2cc(Cl)ccc21)CO3
assigned-class: rule not met
